Task for the reader: assign each of the following variants its reported 8OG:A repair function score.
B1: library; numbered along this chain (parent)
chain: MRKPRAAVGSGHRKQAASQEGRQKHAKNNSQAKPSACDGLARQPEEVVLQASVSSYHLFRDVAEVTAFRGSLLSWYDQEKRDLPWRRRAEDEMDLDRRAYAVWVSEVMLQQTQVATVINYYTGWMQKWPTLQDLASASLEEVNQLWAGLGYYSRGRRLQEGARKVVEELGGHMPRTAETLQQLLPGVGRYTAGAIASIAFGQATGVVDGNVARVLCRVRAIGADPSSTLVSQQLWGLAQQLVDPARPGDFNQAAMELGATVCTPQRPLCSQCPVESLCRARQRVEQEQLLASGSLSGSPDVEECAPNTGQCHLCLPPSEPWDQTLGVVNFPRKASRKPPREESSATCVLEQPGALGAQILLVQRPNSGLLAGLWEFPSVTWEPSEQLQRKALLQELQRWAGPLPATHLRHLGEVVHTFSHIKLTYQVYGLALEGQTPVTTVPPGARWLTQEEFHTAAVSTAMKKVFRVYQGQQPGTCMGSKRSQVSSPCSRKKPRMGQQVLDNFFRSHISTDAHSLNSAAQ

# Variants of: B1
# EXPERIMENT NOTES: 8OG:A repair function score (normalized; synonymous = 0, nonsense = -1) (normalized log-likelihood score); higher = more repair activity (WT-like);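 further: cells sorted at 72 h after reporter transfection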
# CONDITION INFO: with 8OG:A DNA repair reporter (GFP) in HEK-293 MUTYH KO cells

Given V465C , respond with its 8OG:A repair function score.
0.0124

Given P317T , respond with its 8OG:A repair function score.
-0.0225

Given A238F , respond with its 8OG:A repair function score.
-0.858

Given K492V , respond with its 8OG:A repair function score.
-0.0261

Given E342T , respond with its 8OG:A repair function score.
-0.0198

Given F59C , respond with its 8OG:A repair function score.
-0.367

Given L158C , respond with its 8OG:A repair function score.
-0.573
